- Tested on: U2OS
- Assay text: Here: values are normalized to the positive (DMSO; basel flux = defined as 100% suppression) and negative (250nM Torin1; mTOR inhibitor; maximal inducer of autophagy defined as 0% suppression) control compounds and represented as % of ER-phagy suppression. […] The impact of autophagy induction on cells is complex and depends on the affected target. […] Of note, treatment concentrations may be sub-optimal for specific compounds, leading to false negative annotations.
- Type: functional, Homo sapiens
- Cond: Compound Concentration 1 uM, Timepoint 60 hours, Culturing Media DMEM, 1 % Penicillin/Streptomycin, 10% Fetal bovin serum Add-On: blasticidin, Screening Media Control DMEM, 10% Fetal bovin serum Add-On: 1 µg/ml Doxycyclin, Screening Media Samples DMEM, 10% Fetal bovin serum Add-On: 1 µg/ml Doxycyclin 250nM Torin1
Listing of entries alongside the reported ER-phagy suppression.
Form entry: value (%) — number only.

Examples from the recorded data:
[[record]]
compound_structure = "C[C@H](NC(=O)Nc1cc2[nH]ncc2c(CO)n1)c1ccccn1"
readout_units = "%"
readout_value = -20.3879

[[record]]
compound_structure = "O=C(NCc1ccccc1)c1ccc(S(=O)(=O)NCc2ccccc2)cc1"
readout_units = "%"
readout_value = -8.939

[[record]]
compound_structure = "CNCc1ccc(-c2cc(-c3nc(-c4ccc(S(=O)(=O)C(C)C)cc4)cnc3N)on2)cc1"
readout_units = "%"
readout_value = 85.0285

[[record]]
compound_structure = "Cc1cn(-c2cc(NC(=O)c3ccc4c(c3)CN(c3cncnc3)C[C@@H]4C)cc(C(F)(F)F)c2)cn1"
readout_units = "%"
readout_value = -23.2702


Consider now this further compound.
Request: Would you kindly share the measured ER-phagy suppression for `C[C@@H]1CN(c2cc(-c3nn(C)c4ccc(OC5(C)CC5)cc34)ncn2)C[C@H](C)O1` ?
Result: 6.822

###

- System: U2OS
- Assay text: Here: values are normalized to the negative (DMSO; defined as 0% autophagy induction) and positive (250nM Torin1; mTOR inhibitor; defined as maximal inducer of autophagy = 100%) control compounds and represented as % of autophagy induction. […] The impact of autophagy induction on cells is complex and depends on the affected target. As such, the magnitude of a phenotype may not be equally mirrored in the %-value of autophagy induction and vice versa. The dynamics of the induction may indicate the mode of activation: e.g. activation via phosphorylation or a signaling cascade may occur fast, while activation via transcription factors may take considerably longer. […] Of note, treatment concentrations may be sub-optimal for specific compounds, leading to false negative annotations.
- Format: functional, Homo sapiens
- Cond: Compound Concentration 2 uM, Timepoint 12 hours, Culturing Media DMEM, 1 % Penicillin/Streptomycin, 10% Fetal bovin serum Add-On: No, Screening Media Control DMEM, Screening Media Samples DMEM
Property name: autophagy induction (%)
Report the value in % with no unit label.

Request: # input compound: `CCc1ccc(OCc2ccccc2C(=O)Nc2ccc3nc(C)cc(N)c3c2)cc1.Cl` ; wanted: its autophagy induction
Result: 66.4638

Request: Consider the compound shown here: CN1CCCC(n2nc(Cc3ccc(Cl)cc3)c3ccccc3c2=O)CC1.Cl (stereo not given) [AZELASTINE HYDROCHLORIDE] What is its recorded autophagy induction?
Result: -10.9736

Request: Consider the compound shown here: COc1ccc(C2(O)OC(=O)C(c3ccc4c(c3)OCO4)=C2Cc2cc(OC)c(OC)c(OC)c2)cc1 (stereo not given) [PD-156707] What is its recorded autophagy induction?
Result: -5.016

Request: Quick one: autophagy induction for `Cc1c(C2=CCN(C(=O)N(C)C(C)C)CC2)nnn1-c1cccnc1F` ?
Result: -5.386

Request: Which autophagy induction value belongs to `Cc1cc(C)cc(C(=O)N(C)[C@H](Cc2ccc(-c3ccccc3)cc2)C(=O)N[C@@H](Cc2c[nH]c3ccccc23)C(=O)O)c1` ?
Result: 5.392
